B1: TPR 5TU (parent)
chain: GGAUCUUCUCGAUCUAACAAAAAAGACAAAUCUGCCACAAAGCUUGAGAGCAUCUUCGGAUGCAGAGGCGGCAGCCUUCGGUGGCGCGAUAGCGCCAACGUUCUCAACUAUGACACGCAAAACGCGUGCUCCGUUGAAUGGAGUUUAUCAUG

- Variants of: B1
- assay_overview: polymerase ribozyme fitness, log enrichment relative to wild type (log ratio); higher = more active; in vitro selection for triplet polymerase activity
Fewer inactive variants are shown than the library holds.
Each entry gets NOT MET if its polymerase ribozyme fitness (log ratio) stays under -3, and MET if its polymerase ribozyme fitness (log ratio) is -3 or above.

Worked examples, 5 variants total:
G58C A89G; MET
A49C G88U C96G A115U U148G; NOT MET
U13C C27U A37G C54U A106G U109G C123G G124A; NOT MET
A26U A49U G68U C72U G84A G86U G112A A122G; NOT MET
C14U A21G A49G; MET

Quick check: does U44A C85U have polymerase ribozyme fitness (log ratio) greater than or equal to -3?
NOT MET
